System: CEM cells HIV-1 protection, formazan growth assay
Test: NCI AIDS Antiviral Assay
pEC50: −log10 of the molar value.
measure.name: pEC50

Example entries and their recorded answers appear below.
CCCCCCCCCCCCCCCCP(=O)(O)OCC(N)C(=O)O (centres undefined)	< 3.70
CCOC(=O)CC(NC(=O)c1nc[nH]c1[N+](=O)[O-])C(=O)OCC (centres undefined)	< 4.10
Cc1cc(O)c(C=NC(=S)C(N)=S)c(=O)o1	< 3.70

// next entry
[Q] For `Cc1c2c(c(C)c3c1C(=O)c1cc4c(cc1C3=O)OCO4)OCO2` , what is its reported pEC50?
[A] < 3.70

###

Tested on: CEM cells HIV-1 protection, formazan growth assay
Assay: NCI AIDS Antiviral Assay
measure.name: EC50

I'm hoping you can list EC50 for every compound here, please.
1. O=C(O)Cc1cc(=O)oc2cc(O)ccc12
2. CC(C)(C)c1ccc(Oc2ccc(C#N)c(C#N)c2)c(C(C)(C)C)c1

[A]
1. > 1120 µM
2. > 77.6 µM

###

Task for the reader: assign each of the following compounds its reported pIC50.
Test system: CEM cells HIV-1 protection, formazan growth assay
Experiment: NCI AIDS Antiviral Assay
Conditions: measured here: growth of uninfected CEM cells
pIC50: −log10 of the molar value.

Example entries and their recorded answers appear below.
N#Cc1c(N2CCC(O)C2)c2ccccc2n2c1nc1ccccc12 (stereo not given)	< 4.30
CC(=O)NC(CCCNC(=O)N(C)N=O)C(=O)NCc1ccccc1 (stereo not given)	< 3.15
NC1=NC(N)=N1	< 2.53
[N-]=[N+]=NC1CC(n2cc(Cc3ccccc3)c(=O)[nH]c2=O)OC1COC(=O)CCC(=O)O (stereo not given)	< 3.25

I'm hoping you can list pIC50 for every compound here, please.
1. CC(=O)NNc1nc(C)c(C(/C=C/c2cccc([N+](=O)[O-])c2)=N/NC(=S)NN)s1
2. CCc1n[nH]c(=O)n1/N=C/c1c(O)ccc2ccccc12

[A]
["< 4.14", "< 3.70"]

###

Tested on: CEM cells HIV-1 protection, formazan growth assay
Assay: NCI AIDS Antiviral Assay;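 active = compounds giving half or more protection of infected cells from virus-caused growth loss, again on retest; inactive = the rest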
Form entry, call: pick from active, inactive

Example cases with answers are listed next.
Cc1cccc(/C=N/NC(=S)N(C)CCc2ccccn2)n1	inactive
Cc1ccc(O)c(OC2OC(C(=O)O)C(O)C(O)C2O)c1 (centres undefined)	inactive
C=CCOC(=O)/C(=C\c1ccc(OC)c(OC)c1)c1ccc(OC)c(OC)c1	inactive
O=C(c1ccccc1F)c1c(NCc2ccccc2)c(=O)c1=O	active
COC(=O)N1C2CCCCC2=NN(c2ccccc2)N1C(=O)OC (centres undefined)	inactive

[Q] Record request — test call for `CSc1ncnc2c1ncn2CCC(=O)O`
[A] inactive

###

System: CEM cells HIV-1 protection, formazan growth assay
Test: NCI AIDS Antiviral Assay
pEC50: −log10 of the molar value.
measure.name: pEC50

I'm hoping you can list pEC50 for every compound here, please.
1. O=C(c1ccccc1)N1C(=O)c2ccccc21
2. N#C/C1=C(\N)CCSSSC1
3. CCOC(=O)C1=C(C)N(NC(N)=O)C(C)(O)C12CCOC2=O (centres undefined)
4. CN(C)CCCNC(=O)c1cc(NC(=O)c2cc(NC(=O)c3cc(NC(=O)c4ccccc4C(=O)O)cn3C)cn2C)cn1C
5. O=C1[C@@H](c2ccc(Cl)cc2)[C@H]2CC=C[C@H]2N1O
6. FC(F)(F)C[P+](c1ccccc1)(c1ccccc1)c1ccccc1

[A]
1: < 3.79; 2: < 3.34; 3: < 3.10; 4: < 3.70; 5: < 3.45; 6: < 3.70

I'm hoping you can list pEC50 for every compound here, please.
1. CN(C)CCCNC(=O)c1nc(NC(=O)c2nc(NC(=O)c3nc(NC(=O)c4ccc(C(=O)Nc5cn(C)c(C(=O)Nc6cn(C)c(C(=O)Nc7cn(C)c(C(=O)NCCCN(C)C)n7)n6)n5)cc4)cn3C)cn2C)cn1C
2. O=C1CSC(=S)N1Cc1ccncc1
3. CCC[CH2][Sn]1([CH2]CCC)[O]Cc2nc(C)ccc2[O]1

[A]
1. < 4.30
2. < 3.70
3. < 4.85

###

Tested on: CEM cells HIV-1 protection, formazan growth assay
Assay: NCI AIDS Antiviral Assay
Details: measured here: growth of uninfected CEM cells
measure.name: IC50 (µM)
Numbers only, in µM.

COC1/C=C/OC2(C)Oc3c(C)c(O)c4c(O)c(cc(OCC(=O)N(C)C5CCCCC5)c4c3C2=O)NC(=O)/C(C)=C/C=C/C(C)C(O)C(C)C(O)C(C)C(OC(C)=O)C1C (centres undefined)	12.3
CCOC(=O)C1CCCCc2sc(N)c(C#N)c21 (centres undefined)	191
CC1=C(C)CC2(CCCCC2=O)S(=O)C1 (centres undefined)	851
O=C(c1ccccc1)C1C(c2ccccc2)SC(c2ccccc2)CC1(O)c1ccccc1 (centres undefined)	20.9
COC(=O)CC1(O)C(/C=C/c2ccccc2)C(C(=O)OC)C(=O)C(C(=O)OC)C1C(=O)OC (centres undefined)	37.2
Cc1ccccc1C1(O)c2ccccc2Oc2ccccc21	13.8
CCCCCCCCCCCCCCCCCCCCCCCCCCCCCC=C(c1cc(Cl)c(O)c(C(=O)O)c1)c1cc(Cl)c(O)c(C(=O)O)c1	224

// next entry
[Q] For CC(=O)N1C(Nc2ccccn2)CCN1c1ccccc1 (centres undefined) , what is its reported IC50?
[A] 38

###

Task for the reader: assign each of the following molecules its reported IC50.
Test system: CEM cells HIV-1 protection, formazan growth assay
Assay: NCI AIDS Antiviral Assay
Conditions: measured here: growth of uninfected CEM cells

O=c1n(-c2ccccc2)c(=O)n2n1C1C3C4C5C3C2C5(F)C41 (stereo not drawn)	> 200 µM
Cc1ccc(NC(=O)CC(=O)n2nc(C)c(N=Nc3ccccc3C(=O)O)c2C)cc1	> 427 µM

I'm hoping you can list IC50 for every molecule here, please.
1. COc1cc(C2C(C(=O)Nc3ccc([N+](=O)[O-])cc3)=C(C)NC(C)=C2C(=O)Nc2ccc([N+](=O)[O-])cc2)ccc1O
2. COc1ccc(C(C)=O)cc1CN1CCN(Cc2cc(C(C)=O)ccc2OC)CC1
3. CC(=O)c1ccc(NC(=O)/C(CC(=O)/C=C/c2ccccc2)=N/NC(N)=S)cc1
4. COc1ccc2c(c1)c1c3n2CCNN=C3CCC1
5. CCOC(=O)c1c(N)n(-c2ccccc2)c(=S)n(-c2ccccc2)c1=O
6. CCCCCCN(CCCCCC)C(=O)Cc1c2n(c3ccccc13)Cc1ccccc1-2

[A]
1. > 9.33 µM
2. > 33.1 µM
3. > 63.1 µM
4. > 74.1 µM
5. > 178 µM
6. > 6.31 µM

###

Tested on: CEM cells HIV-1 protection, formazan growth assay
Test: NCI AIDS Antiviral Assay
Task for the reader: assign each of the following molecules its reported EC50.

Example entries and their recorded answers appear below.
CC(C)N(C(C)C)P(OCCC#N)OC1CC(n2cnc3c(=O)[nH]cnc32)OC1COC(=O)NCCCCCCNC(=O)OC(C)(C)c1ccc(-c2ccccc2)cc1 (stereo unspecified)	> 8.71 µM
N#C/C(=C\c1ccc(Cl)cc1)c1ccccc1[N+](=O)[O-]	> 200 µM
O=C1NC(=S)NC1C(Cc1ccccc1)c1ccccc1 (stereo unspecified)	> 200 µM
O=C1C2N=NNC2C(=O)N1c1ccccc1 (stereo unspecified)	> 200 µM
COC(=O)c1c(C(=O)OC)c2cc(C(=O)c3ccccc3)ccn2c1Cl	> 26.9 µM
Cn1c(COc2ccc(/C=N/NC(=O)c3cccc(C(=O)N/N=C/c4ccc(OCc5c[n+]6ccccc6n5C)cc4)c3)cc2)c[n+]2ccccc12	> 6.92 µM
COc1ccccc1NC(=O)/C(=C/c1ccccc1)C(C)=O	> 24.5 µM
OCCCSCCCCSCCCO	> 41.7 µM

I'm hoping you can list EC50 for every molecule here, please.
1. O=C1c2ccccc2C(=O)C1(Br)c1ccccc1
2. O=C1C2C3C=C4c5ccccc5N(c5ccccc5)C4(C2C(=O)N1c1ccc(Cl)cc1)[C@H]1C(=O)N(c2ccc(Cl)cc2)C(=O)[C@@H]31 (stereo partly specified)
3. CSC1=C(C#N)C(=O)N(c2ccc(Cl)cc2)C(=O)C1C#N (stereo unspecified)
4. Cc1cc(C)c(S(=O)(=O)Sc2nnnn2-c2ccccc2)c(C)c1
5. O=C(CNc1ccccc1Cl)Nn1c(-c2ccccc2)nc2ccccc2c1=O
6. COC(OC)c1cccnc1C
7. CC(=O)NC1C(CO)O[C@@H]2OC(C)(C)O[C@H]12 (stereo partly specified)
8. CCCNC(=O)N1CC(CN2CCN(c3ccccc3)CC2)O/C1=N/C(=O)Nc1ccccc1 (stereo unspecified)

[A]
["> 200 µM", "> 3.16 µM", "> 200 µM", "> 20 µM", "> 200 µM", "> 1480 µM", "> 200 µM", "> 200 µM"]
